The values you see were collected from patent US20250206841A1.

- assayTarget: T1, human Trop-2 expressed on cell surface (human, UniProt P09758 27-323)
- T1 sequence (looked up): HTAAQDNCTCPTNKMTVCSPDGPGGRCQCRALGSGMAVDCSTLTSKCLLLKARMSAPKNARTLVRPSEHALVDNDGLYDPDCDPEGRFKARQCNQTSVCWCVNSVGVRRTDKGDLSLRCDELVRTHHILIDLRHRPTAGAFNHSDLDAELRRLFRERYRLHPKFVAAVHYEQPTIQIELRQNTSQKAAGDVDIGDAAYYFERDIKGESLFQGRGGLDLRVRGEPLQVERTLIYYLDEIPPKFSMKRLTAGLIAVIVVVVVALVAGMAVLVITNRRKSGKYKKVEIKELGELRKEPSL
- experimentNotes: cell-based or functional assay
Below, each entry is listed with its recorded Internalization %, MDA-MB-231, 2 µg/ml, 4 h.
Your answer is read as %, so omit the unit and give the number.

Recorded results for 2 binders are shown here.
INSERT INTO results (binder, unitslabel, experimentalresult) VALUES
  ('74F11/15F5 (antibody, human IgG1, V domains shown, LEM construct: VH + rabbit IgG CH1 + human IgG1 CH2-CH3) VH: QEQLKESGGGLVQPGGSLKLSCKASGFDFNNYGMSWVRQAPGKGLEWIAYIYPAFHNTYYANWVNGRFTISSDNAQNTVDLQLNSLTAADTATYFCARDAGSTDYNFNLWGPGTLVTVSS VL: DVVMTQTPASVEAAVGGTVTIKCQASEDIERYLAWYQQKPGQPPKLLIYEASKLPSGVSSRFSGSGYGTEFTLTISGVECADAATYYCQQALTIGYVDNPFGGGSEVVVK', '%', 46),
  ('72F12 (antibody, V domains shown, Rabbit-derived clone; LEM construct: VH + rabbit IgG CH1 + human IgG1 CH2-CH3) VH: QEQLKESGGGLVQPGGSLKLSCKASGFDFNNYGVSWVRQAPGKGLEWIAYIYPAFHNTYYATWVNGRFTISSHNAQNTLYLQLNSLTAADTATYFCARDAGSVDYNFNLWGPGTLVTVSS VL: DVVMTQTPASVEVAVGGTVTIKCQASKNIDSNLAWYQQKPGQPPKQLIYAASTLASGVSSRFSGSGYGAEFTLTISGVECADAATYYCQQALTIGNVDNPFGGGSEVVVK', '%', 45);

Report Internalization %, MDA-MB-231, 2 µg/ml, 4 h for 5D4-2 (antibody, V domains shown) VH: QQLEESGGGLVKPEGSLTLTCKGSGFDFSGTYWMWWVRQAPGKGLEWIASIYVGSGSSTYYASWAKGRFTISSTSSTAVTLQATSLTAADTATYFCARGATNNVFMNYFNLWGPGTLVTVSS VL: FEMTQTPSSVSEPVGGTVTIKCQASEDISSNLGWYQQKPGQPPKLLIYGASTLASGVPSRFKGSGSGTEFTLTISDLEAADAATYYCQTSYYIDDGVNGFGGGTEVVVK please.
62
